molecular target: GalNAc(a1-3)GalNAc(b1-3)Gal(a1-4)Gal(b1-4)Glc; experiment: glycan array binding signal (z-score within array); higher = stronger binding; conditions: glycan notation: IUPAC condensed, linker removed
The entries come from a sample that favours the strongest signals as a whole.
// reported glycan array binding signal (z-score) per item

binder | glycan array binding signal (z-score)
rCnSL-proA (Clitocybe nebularis) (protein) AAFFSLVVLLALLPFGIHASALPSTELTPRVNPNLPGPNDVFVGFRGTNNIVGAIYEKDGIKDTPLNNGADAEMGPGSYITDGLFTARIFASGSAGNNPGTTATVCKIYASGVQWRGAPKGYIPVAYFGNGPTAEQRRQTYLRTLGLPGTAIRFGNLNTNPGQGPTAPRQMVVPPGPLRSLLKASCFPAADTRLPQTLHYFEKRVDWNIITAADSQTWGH | -0.574

Kindly review the next binder as well.
Look up and state reported glycan array binding signal (z-score) for PpFlo1 (Pichia pastoris) (protein) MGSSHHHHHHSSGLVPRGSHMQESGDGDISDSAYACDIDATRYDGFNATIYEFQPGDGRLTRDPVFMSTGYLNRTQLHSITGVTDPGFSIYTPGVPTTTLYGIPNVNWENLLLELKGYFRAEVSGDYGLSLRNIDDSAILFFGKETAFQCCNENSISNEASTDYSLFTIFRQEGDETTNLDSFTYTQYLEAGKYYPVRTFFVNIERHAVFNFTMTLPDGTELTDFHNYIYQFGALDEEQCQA
-0.647
